# experimental.protocol: in vivo
# experimental.context: female, rhesus monkey, Tissue concentration, Cerebellum
# Experimental: RT-SHIV was selected for the study since it contains the HIVHXBc2 RT that is sensitive to RPV. RT-SHIV was obtained through the NIH AIDS Reagent Program, Division of AIDS, NIAID, NIH[17]–[19]. […] A cocktail of methanol containing internal standards was added to precipitate proteins. […] Drug concentrations were calculated from a standard curve with a range of 0.5–2000 ng/mL using Analyst software. […] Plasma concentrations of CAB were measured weekly. […]
assay.metric: concentration at 3 weeks

1. Cc1cc(/C=C/C#N)cc(C)c1Nc1ccnc(Nc2ccc(C#N)cc2)n1 | 259 ng/g
2. C[C@H]1CO[C@@H]2Cn3cc(C(=O)NCc4ccc(F)cc4F)c(=O)c(O)c3C(=O)N12 | 58 ng/g
